test_method_notes: Clearance in rat at 1 mg/kg, iv
Type: ADME, organism-based
stated_conditions: in vivo
reported_endpoint: clearance (mL/min/kg)

Nc1ncc(C(=O)NC2CN(C(=O)C3CC3)C2)c2ccc(-c3cccc(F)c3)nc12: 7.5

---

test_method_notes: Clearance in mouse liver microsomes assessed as compound remaining incubated for 1 hr by LC-MS/MS method
Assay type: ADME
// label = 1.0 if CLhep predicted is not less than 60 mL/min/kg, otherwise 0.0

CNC(=O)N1CC(NC(=O)c2cnc(N)c3nc(-c4cccc(F)c4)ccc23)C1: 0.0
CCC(=O)N1CC(NC(=O)c2cnc(N)c3nc(-c4cccc(F)c4)ccc23)C1: 0.0
Nc1ncc(C(=O)NC2CC2)c2ccc(-c3cccc(F)c3)nc12: 1.0
Nc1ncc(C(=O)NC2CN(C(=O)C3CC3)C2)c2ccc(-c3cccc(F)c3)nc12: 0.0

---

test_method_notes: Cmax in rat at 1 mg/kg, iv
Assay type: ADME, organism-based
Design: dose 1 mg/kg, route intravenous
stated_conditions: in vivo
reported_endpoint: Cmax (µM)

Nc1ncc(C(=O)NC2CN(C(=O)C3CC3)C2)c2ccc(-c3cccc(F)c3)nc12: 4

---

test_method_notes: Tmax in dog at 5 mg/kg, po
Type: ADME, organism-based, Canis lupus familiaris
stated_conditions: in vivo
reported_endpoint: Tmax (h)

Nc1ncc(C(=O)NC2CN(C(=O)C3CC3)C2)c2ccc(-c3cccc(F)c3)nc12: 1.7

---

test_method_notes: Half life in rat at 1 mg/kg, iv
Format: ADME, organism-based
stated_conditions: in vivo
reported_endpoint: half-life (h)

Nc1ncc(C(=O)NC2CN(C(=O)C3CC3)C2)c2ccc(-c3cccc(F)c3)nc12: 3.4

---

test_method_notes: Clearance in human liver microsomes assessed as compound remaining incubated for 1 hr by LC-MS/MS method
Assay type: ADME
Label Fulfilled for high-side CLhep predicted (at or above 7 mL/min/kg) and Not fulfilled for low-side CLhep predicted (below it).

Nc1ncc(C(=O)N[C@H]2C[C@@H](O)C2)c2ccc(-c3cccc(F)c3)nc12: Not fulfilled
CNC(=O)N1CC(NC(=O)c2cnc(N)c3nc(-c4cccc(F)c4)ccc23)C1: Fulfilled
Nc1ncc(C(=O)NC2CC2)c2ccc(-c3cccc(F)c3)nc12: Fulfilled
CCC(=O)N1CC(NC(=O)c2cnc(N)c3nc(-c4cccc(F)c4)ccc23)C1: Not fulfilled

---

molecules and their reported pIC50
study_system: Mitogen-activated protein kinase kinase kinase kinase 4 (Homo sapiens, UniProt O95819)
Sequence (O95819 whole entry): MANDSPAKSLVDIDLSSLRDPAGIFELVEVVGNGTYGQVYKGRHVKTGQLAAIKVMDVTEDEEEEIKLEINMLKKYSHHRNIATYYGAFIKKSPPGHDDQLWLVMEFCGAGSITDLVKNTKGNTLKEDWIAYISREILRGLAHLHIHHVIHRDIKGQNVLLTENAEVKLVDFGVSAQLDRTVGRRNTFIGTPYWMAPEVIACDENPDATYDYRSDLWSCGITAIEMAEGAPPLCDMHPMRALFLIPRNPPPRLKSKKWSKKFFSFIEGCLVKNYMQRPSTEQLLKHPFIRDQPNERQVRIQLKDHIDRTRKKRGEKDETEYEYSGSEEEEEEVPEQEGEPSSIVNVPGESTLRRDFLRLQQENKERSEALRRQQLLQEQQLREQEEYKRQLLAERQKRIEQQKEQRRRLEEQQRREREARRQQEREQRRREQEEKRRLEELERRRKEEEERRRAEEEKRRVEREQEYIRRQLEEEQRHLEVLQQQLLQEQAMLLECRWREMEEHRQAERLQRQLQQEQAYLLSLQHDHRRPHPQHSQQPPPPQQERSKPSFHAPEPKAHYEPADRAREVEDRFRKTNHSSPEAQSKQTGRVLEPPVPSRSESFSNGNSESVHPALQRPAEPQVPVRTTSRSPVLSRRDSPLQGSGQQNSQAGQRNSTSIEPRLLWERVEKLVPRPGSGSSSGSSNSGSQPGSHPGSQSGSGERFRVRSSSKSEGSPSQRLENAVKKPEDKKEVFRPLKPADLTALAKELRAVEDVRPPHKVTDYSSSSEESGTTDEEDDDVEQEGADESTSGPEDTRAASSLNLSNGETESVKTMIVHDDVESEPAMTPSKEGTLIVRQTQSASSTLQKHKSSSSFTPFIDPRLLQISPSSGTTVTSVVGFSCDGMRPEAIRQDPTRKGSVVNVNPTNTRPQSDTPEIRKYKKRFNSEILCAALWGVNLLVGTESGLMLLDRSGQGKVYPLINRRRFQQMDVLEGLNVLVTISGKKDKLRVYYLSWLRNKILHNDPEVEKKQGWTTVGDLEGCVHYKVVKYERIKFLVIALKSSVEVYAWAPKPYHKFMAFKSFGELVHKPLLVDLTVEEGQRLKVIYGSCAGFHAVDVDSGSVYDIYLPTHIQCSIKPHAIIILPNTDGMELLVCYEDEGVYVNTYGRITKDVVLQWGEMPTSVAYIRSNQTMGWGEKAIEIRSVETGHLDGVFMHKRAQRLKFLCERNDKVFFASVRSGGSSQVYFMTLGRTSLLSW
test_method_notes: Inhibition of MAP4K4 (unknown origin) by Z'LYTE assay
pIC50: −log10 of the molar value.
reported_endpoint: pIC50

N#CCNC(=O)c1cnc(N)c2cc(-c3cccc(F)c3)ccc12: 7.34
Nc1ncc(C(=O)N[C@H]2C[C@@H](O)C2)c2ccc(-c3cccc(F)c3)nc12: 8.43
NC(=O)c1cnc(N)c2cc(-c3cccc(F)c3)ccc12: 7.74
Nc1ncc(C(=O)NC2CC(O)C2)c2ccc(-c3cccc(F)c3)cc12 (mixture of isomers): 7.39
CC(=O)N1CC(NC(=O)c2cnc(N)c3cc(-c4cccc(F)c4)ccc23)C1: 7.49
Nc1ncc(C(=O)NC2CN(C(=O)C3CC3)C2)c2ccc(-c3cccc(F)c3)nc12: 8.43
Nc1ncc(C(=O)NC2CC2)c2ccc(-c3cccc(F)c3)nc12: 8.85
CCC(=O)N1CC(NC(=O)c2cnc(N)c3nc(-c4cccc(F)c4)ccc23)C1: 8.46

---

test_method_notes: Efflux ratio in MDCK cells at 10 uM incubated over 60 mins
Type: ADME, cell-based, Canis lupus familiaris
stated_conditions: dog
reported_endpoint: efflux ratio at 1 h, 10 µM

Nc1ncc(C(=O)NC2CN(C(=O)C3CC3)C2)c2ccc(-c3cccc(F)c3)nc12: 2.3
Nc1ncc(C(=O)N[C@H]2C[C@@H](O)C2)c2ccc(-c3cccc(F)c3)nc12: 0.83
CNC(=O)N1CC(NC(=O)c2cnc(N)c3nc(-c4cccc(F)c4)ccc23)C1: 1.1
Nc1ncc(C(=O)NC2CC2)c2ccc(-c3cccc(F)c3)nc12: 0.74

---

test_method_notes: Ratio of drug level in brain to plasma in rat administered as cassette dosing
Type: ADME, organism-based
stated_conditions: read-out: BPR
reported_endpoint: Kp

N#CCNC(=O)c1cnc(N)c2cc(-c3cccc(F)c3)ccc12: 0.12
Nc1ncc(C(=O)NC2CC(O)C2)c2ccc(-c3cccc(F)c3)cc12 (mixture of isomers): 0.02

---

study_system: Mitogen-activated protein kinase kinase kinase kinase 4 (Homo sapiens, UniProt O95819)
test_method_notes: Inhibition of MAP4K4 (unknown origin) by LC3K method
reported_endpoint: IC50 (nM)

Nc1ncc(C(=O)NC2CC2)c2ccc(-c3cccc(F)c3)cc12: 16

---

test_method_notes: Cmax in dog at 1 mg/kg, iv
Format: ADME, organism-based, Canis lupus familiaris
Design: dose 1 mg/kg, route intravenous
stated_conditions: in vivo
reported_endpoint: Cmax (µM)

Nc1ncc(C(=O)NC2CN(C(=O)C3CC3)C2)c2ccc(-c3cccc(F)c3)nc12: 3.9

---

test_method_notes: Oral bioavailability in rat at 5 mg/kg
Assay type: ADME, organism-based
stated_conditions: in vivo
reported_endpoint: bioavailability (%)

Nc1ncc(C(=O)NC2CN(C(=O)C3CC3)C2)c2ccc(-c3cccc(F)c3)nc12: 40

---

test_method_notes: Protein binding in mouse plasma
Assay type: ADME, cell-free
stated_conditions: read-out: PPB (converted)
reported_endpoint: fraction unbound

Nc1ncc(C(=O)NC2CN(C(=O)C3CC3)C2)c2ccc(-c3cccc(F)c3)nc12: 0.056

---

test_method_notes: Clearance in rat liver microsomes assessed as compound remaining incubated for 1 hr by LC-MS/MS method
Format: ADME
Label yes when CLhep predicted is at or above 30 mL/min/kg; anything below gets no.

Nc1ncc(C(=O)NC2CC(O)C2)c2ccc(-c3cccc(F)c3)cc12 (mixture of isomers): no
Nc1ncc(C(=O)NC2CNC2)c2ccc(-c3cccc(F)c3)cc12: no
Nc1ncnc2ccc(-c3cccc(F)c3)cc12: yes
Nc1ncc(C(=O)NC2CC2)c2ccc(-c3cccc(F)c3)cc12: no
CNC(=O)N1CC(NC(=O)c2cnc(N)c3cc(-c4cccc(F)c4)ccc23)C1: no
NC(=O)c1cnc(N)c2cc(-c3cccc(F)c3)ccc12: yes
CC(=O)N1CC(NC(=O)c2cnc(N)c3cc(-c4cccc(F)c4)ccc23)C1: no
N#CCNC(=O)c1cnc(N)c2cc(-c3cccc(F)c3)ccc12: no

---

test_method_notes: Cmax in dog at 5 mg/kg, po
Format: ADME, organism-based, Canis lupus familiaris
Set-up: dose 5 mg/kg, route oral
stated_conditions: in vivo
reported_endpoint: Cmax (nM)

Nc1ncc(C(=O)NC2CN(C(=O)C3CC3)C2)c2ccc(-c3cccc(F)c3)nc12: 1200

---

test_method_notes: AUC (infinity) in mouse at 5 mg/kg, po
Format: ADME, organism-based
Set-up: dose 5 mg/kg, time infinity, route oral
stated_conditions: in vivo
reported_endpoint: AUC(0-inf) (µM·h)

Nc1ncc(C(=O)NC2CN(C(=O)C3CC3)C2)c2ccc(-c3cccc(F)c3)nc12: 5.3

---

test_method_notes: Half life in dog at 1 mg/kg, iv
Assay type: ADME, organism-based, Canis lupus familiaris
stated_conditions: in vivo
reported_endpoint: half-life (min)

Nc1ncc(C(=O)NC2CN(C(=O)C3CC3)C2)c2ccc(-c3cccc(F)c3)nc12: 108

---

test_method_notes: Protein binding in rat plasma
Format: ADME, cell-free
stated_conditions: read-out: PPB (converted)
reported_endpoint: fraction unbound

Nc1ncc(C(=O)NC2CN(C(=O)C3CC3)C2)c2ccc(-c3cccc(F)c3)nc12: 0.022

---

Each entry below carries its reported Papp at 1 h, 10 µM.
test_method_notes: Apparent permeability in MDCK cells at 10 uM incubated over 60 mins
Format: ADME, cell-based, Canis lupus familiaris
stated_conditions: dog
reported_endpoint: Papp at 1 h, 10 µM (×10⁻⁶ cm/s)

CNC(=O)N1CC(NC(=O)c2cnc(N)c3nc(-c4cccc(F)c4)ccc23)C1: 2.4
Nc1ncc(C(=O)NC2CN(C(=O)C3CC3)C2)c2ccc(-c3cccc(F)c3)nc12: 7.3
Nc1ncc(C(=O)NC2CC2)c2ccc(-c3cccc(F)c3)nc12: 3.4
Nc1ncc(C(=O)N[C@H]2C[C@@H](O)C2)c2ccc(-c3cccc(F)c3)nc12: 10.1

---

test_method_notes: Clearance in mouse at 1 mg/kg, iv
Assay type: ADME, organism-based
stated_conditions: in vivo
reported_endpoint: clearance (mL/min/kg)

Nc1ncc(C(=O)NC2CN(C(=O)C3CC3)C2)c2ccc(-c3cccc(F)c3)nc12: 19

---

test_method_notes: Cmax in mouse at 1 mg/kg, iv
Type: ADME, organism-based
Design: dose 1 mg/kg, route intravenous
stated_conditions: in vivo
reported_endpoint: Cmax (nM)

Nc1ncc(C(=O)NC2CN(C(=O)C3CC3)C2)c2ccc(-c3cccc(F)c3)nc12: 2700

---

System: HUVEC
test_method_notes: Anti-angiogenesis activity in HUVEC assessed as inhibition of cell migration
Type: functional, cell-based
stated_conditions: Homo sapiens
// reported IC50 for each item listed
reported_endpoint: IC50 (nM)

CNC(=O)N1CC(NC(=O)c2cnc(N)c3nc(-c4cccc(F)c4)ccc23)C1: 196
Nc1ncc(C(=O)NC2CN(C(=O)C3CC3)C2)c2ccc(-c3cccc(F)c3)nc12: 57
Nc1ncc(C(=O)N[C@H]2C[C@@H](O)C2)c2ccc(-c3cccc(F)c3)nc12: 215
CCC(=O)N1CC(NC(=O)c2cnc(N)c3nc(-c4cccc(F)c4)ccc23)C1: 79
Nc1ncc(C(=O)NC2CC2)c2ccc(-c3cccc(F)c3)nc12: 99

Origin of values: ChEMBL document CHEMBL3621153
